Target: T1, Human B7-H4 with HisFlag tag (huB7-H4-his) (human, UniProt Q7Z7D3 25-258)
T1 construct: also called HuB7-H4 His protein; huB7-H4-HF
T1 sequence: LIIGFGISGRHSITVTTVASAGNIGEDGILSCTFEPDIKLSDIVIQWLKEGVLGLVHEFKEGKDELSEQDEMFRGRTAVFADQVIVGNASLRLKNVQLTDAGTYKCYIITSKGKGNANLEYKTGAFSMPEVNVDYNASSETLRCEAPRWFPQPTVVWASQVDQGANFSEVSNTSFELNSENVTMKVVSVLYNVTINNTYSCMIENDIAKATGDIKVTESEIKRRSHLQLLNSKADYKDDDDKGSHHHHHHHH
Test: SPR Biacore T200, antibody coupled to CM5 chip, series of huB7-H4-his concentrations, 1:1 model
QUANTITY KIND: koff (s⁻¹)
Respond numerically; units are s⁻¹ and should not be typed.

These recorded examples may help you get a feel for the data.
BINDER	koff [s⁻¹]
chimeric antibody M1 (antibody, V domains shown, also called ch-M1) VH: EIQLQQSGPELVMPGASVKVSCTASGYPFTTYNMYWVKQSHGKSLEWIAYIDPYNGGTSYNQKFKGKATLTVDKSSSTAYMHLNSLTSEDSAVYYCARSGFYDGYYAWYFDVWGAGTTVTVSS VL: DVVMTQTPLSLPVSLGDQASISCRSSQSLVHSGGNTYLHWYLQKPGQSPKLLIYKVSNRFSGVPDRFSGSGSGTDFTLKISRVEAEDLGVYFCSQSTHVPLTFGAGTKLELK	9.41e-05
chimeric antibody 2F4 (antibody, human IgG1, V domains shown, also called ch-2F4) VH: EVQLVESGGGLVKPGGSLKLSCAASGLTFSRYAMSWVRQTPEKRLEWVAGISSGGSYTYYSDTVKGRFTISRDNVRNTLYLQMSSLRSEDTAMYYCGREYGRDYWGQGTSVTVSS VL: DILMTQSPSSMSVSLGDTVSITCHASQGINSNIGWLQQKPGKSFKGLIYHGTNLEDGVPSRFSGSGSGTDYSLTISSLESEDFADYYCVQYAQFPRTFGGGTTLEIK	0.00259
chimeric antibody 2F7 (antibody, human IgG1, V domains shown, also called ch-2F7) VH: EVQLVESGGGLVQPGGSLKLSCAASGFTFSNYYMSWVRQTPEKRLEWVAYVSSGGGSTYYSDSVKGRFTISRDNAKNTLYLQMSSLKPEDTAMYYCTRESYSQGNYFDYWGQGTTLTVSS VL: DIVMTQSPATLSVTPGDRVSLSCRASQSISDYLHWYQQKSHESPRLLIKFASQSISGIPSRFSGSGSGSDFTLSINSVEPEDVGVYYCQNGHSFSLTFGAGTKLELK	0.00304

API: the following record is the query input.
# lookup: koff of chimeric antibody 2F8 (antibody, human IgG1, V domains shown, also called ch-2F8) VH: QVQLQQPGSVLVRPGASVKLSCKASGYTFTNSWMNWAKLRPGQGLEWIGGIYPNSGNIEYNEKFKGKATLTVDTSSSTAYMDLTSLTSEDSAVYYCARDSRFSYWGQGTLVTVSA VL: DIVMTQSHKFMSTSVGDRVSITCKASQDVRTAVAWYQQKPGQSPKLLISSTSYRYTGVPDRFTGSGSGTDFTFIISSVQAEDLAVYYCQQHYSTPLTFGAGTKLELK
0.000114
